Read-out: Interleukin-8 (IL8), CXCL8 (gene 3576)
Measurement Protocol: BSK_3C_IL8: BioMAP Diversity Plus: 3C Assay for Interleukin-8 (IL8) Biomarker Activity (AID 2283020)
Test Context: primary human endothelial cells (HUVEC); actives raise or lower the signal
Activity calls are given as the source filed them. The calls were made as follows: active = hit-call score of the fitted dose curve at least 0.9, where 1 is the maximum; inactive = score below 0.9.
Possible outcomes: yes for active, no for inactive

Oc1cccc2ccccc12; no
CCC[Si](OC(C)=O)(OC(C)=O)OC(C)=O; no
CCCCCCCCCCCCCCCCCC[N+](C)(C)C; yes
COc1ccccc1Oc1c(NS(=O)(=O)c2ccc(C(C)(C)C)cc2)nc(-c2ncccn2)nc1OCCO; no
CC(C)C1OCCN1CCOC(=O)NCCCCCCNC(=O)OCCN1CCOC1C(C)C (stereo not given); no

----------
Measurement Protocol: TOX21_p53_BLA_p2_viability: Viability Assessment in the Tox21 HCT-116 p53 Agonism Beta-lactamase Assay, Phase 2 (AID 2283591);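 also: compound exposure lasted 16 h at 37 °C; actives lower the ATP signal meaning cytotoxicity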
Results filed as inconclusive are left out. The source made the active and inactive calls. How the source made its calls: active means hit-call score of the fitted dose curve at least 0.9, where 1 is the maximum; inconclusive means response in the unintended direction; inactive means score below 0.9.
Outcome codes: label 1 = active, label 0 = inactive

O=C(O)c1cc(=O)[nH]c(=O)[nH]1; label 0
CO/N=C(\C(=O)N[C@@H]1C(=O)N2C(C(=O)OCOC(=O)C(C)(C)C)=C(/C=C\c3scnc3C)CS[C@H]12)c1csc(N)n1; label 0
CCCCc1oc2ccc(NS(C)(=O)=O)cc2c1C(=O)c1ccc(OCCCN(CCCC)CCCC)cc1; label 1
CC(O)COC(C)(C)C (stereo not given); label 0
COC(=O)[C@H]1[C@H]2C[C@@H]3c4[nH]c5cc(OC)ccc5c4CCN3C[C@H]2C[C@@H](OC(=O)COc2ccc(OC)cc2)[C@@H]1OC; label 0

----------
System: Cellular tumor antigen p53 (Homo sapiens)
Measurement Protocol: TOX21_p53_BLA_p2_ratio: Tox21 HCT-116 p53 Agonism Beta-lactamase Assay, Ratio, Phase 2 (AID 2283592)
Method: TOX21_p53_BLA_p2 is a cell-based, single-readout assay that uses HCT116, a human intestinal cell line, […] in a 1536-well plate.TOX21_p53_BLA_p2_ratio is an assay readout measuring reporter gene via receptor activity and designed using inducible reporter (beta lactamase induction) detected with GAL4 b-lactamase reporter gene. […] This assay endpoint, TOX21_p53_BLA_p2_ratio, was analyzed in the positive analysis fitting direction relative to DMSO as the negative control and baseline of activity. […]
Inconclusive results are not listed. Active and inactive are the calls of the source. Rule for the calls: active = hit-call score of the fitted dose curve at least 0.9, where 1 is the maximum; inconclusive = response in the unintended direction; inactive = score below 0.9.
Possible outcomes: active, inactive

CC[C@H]1OC(=O)[C@H](C)[C@@H](O[C@H]2C[C@@](C)(OC)[C@@H](O)[C@H](C)O2)[C@H](C)[C@@H](O[C@@H]2O[C@H](C)C[C@H](N(C)C)[C@H]2O)[C@](C)(O)C[C@@H](C)CN(C)[C@H](C)[C@@H](O)[C@]1(C)O; inactive
CCCC(c1cc(C(C)(C)C)c(O)cc1C)c1cc(C(C)(C)C)c(O)cc1C; active
Clc1ccc2c(c1)CCc1cccnc1C2=C1CCNCC1; inactive
C[S+](CC[C@H](N)C(=O)O)C[C@H]1O[C@@H](n2cnc3c(N)ncnc32)[C@H](O)[C@@H]1O (stereo partly drawn); inactive
O=NN(CCCl)C(=O)NC1CCCCC1; inactive
O=C(O)c1ccccc1C(=O)Nc1ccc(S(=O)(=O)Nc2nccs2)cc1; inactive
CC(C)(C)c1ccc(C(=O)CCCN2CCC(OC(c3ccccc3)c3ccccc3)CC2)cc1; inactive
CCc1ccc(C)cc1; inactive
CC1(C)C(\C=C/C=C\C=C/C=C2/N(CCCCS(=O)(=O)O)c3ccc4ccccc4c3C2(C)C)=[N+](CCCCS(=O)(=O)[O-])c2ccc3ccccc3c21; inactive
CCCC(CC)CCCCCCCN (stereo not drawn); inactive
CCOC(=O)[C@H](CCc1ccccc1)N[C@H]1CCCN2CCC[C@@H](C(=O)O)N2C1=O; inactive
CC1(C)[C@@H]2CC[C@@]1(C)[C@H](OC(=O)CSC#N)C2; inactive
O=NN(CCCl)C(=O)NCCCl; inactive
CCCC[P+](C)(CCCC)CCCC; inactive
CC(=O)NO; inactive
c1cc(OCC2CO2)cc(OCC2CO2)c1 (stereo not drawn); active
O=C(OCCOCCO)c1ccccc1Nc1cccc(C(F)(F)F)c1; inactive
Nc1ccc(F)cc1F; inactive
CCCCOCCOC(=O)COc1cc(Cl)c(Cl)cc1Cl; inactive
FC(F)OC(Cl)C(F)(F)F (stereo not drawn); inactive
CC1(C)S[C@@H]2[C@H](NC(=O)C(C(=O)O)c3ccsc3)C(=O)N2[C@H]1C(=O)O (stereo partly drawn); inactive
CNCCC=C1c2ccccc2CCc2ccccc21; inactive
C1CCN(CN2CCCCC2)CC1; inactive
COc1cc2c(N3CCN(C(=O)Nc4ccc(OC(C)C)cc4)CC3)ncnc2cc1OCCCN1CCCCC1; active
Cc1c(C)c2c(c(C)c1O)CC[C@@](C)(CCC[C@H](C)CCC[C@H](C)CCCC(C)C)O2; inactive
CCCN(CCC)C(=O)C(CCC(=O)OCCCN1CCN(CCOC(=O)Cc2c(C)n(C(=O)c3ccc(Cl)cc3)c3ccc(OC)cc23)CC1)NC(=O)c1ccccc1 (stereo not drawn); inactive
O=C(Cl)c1cc(Cl)cc(Cl)c1; inactive
NS(=O)(=O)c1cc2c(cc1C(F)(F)F)NCNS2(=O)=O; inactive

----------
Read-out: Tissue Factor, F3 (gene 2152)
Measurement Protocol: BSK_CASM3C_TissueFactor: BioMAP Diversity Plus: CASM3C Assay for Tissue Factor Biomarker Activity (AID 2283052);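 also: cell surface tissue factor protein level read by ELISA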
Test Context: primary human coronary artery smooth muscle cells; actives raise or lower the signal
The source made the active and inactive calls. How the source made its calls: active means hit-call score of the fitted dose curve at least 0.9, where 1 is the maximum; inactive means score below 0.9.
Quantity: AC50

CCC(C)=NO; inactive
CN(C)CCC(c1ccc(Cl)cc1)c1ccccn1 (stereo not given); inactive
CC(C)CC(=O)CC(C)CC(C)C (stereo not given); 31.7 µM (active)
C1CN(CCOCCN2CCOCC2)CCO1; inactive
CCCCCCC(O)CCCCCCCCCCC(=O)OC (stereo not given); inactive

----------
System: Cellular tumor antigen p53 (Homo sapiens) (UniProt P04637)
Sequence (P04637 whole entry, looked up): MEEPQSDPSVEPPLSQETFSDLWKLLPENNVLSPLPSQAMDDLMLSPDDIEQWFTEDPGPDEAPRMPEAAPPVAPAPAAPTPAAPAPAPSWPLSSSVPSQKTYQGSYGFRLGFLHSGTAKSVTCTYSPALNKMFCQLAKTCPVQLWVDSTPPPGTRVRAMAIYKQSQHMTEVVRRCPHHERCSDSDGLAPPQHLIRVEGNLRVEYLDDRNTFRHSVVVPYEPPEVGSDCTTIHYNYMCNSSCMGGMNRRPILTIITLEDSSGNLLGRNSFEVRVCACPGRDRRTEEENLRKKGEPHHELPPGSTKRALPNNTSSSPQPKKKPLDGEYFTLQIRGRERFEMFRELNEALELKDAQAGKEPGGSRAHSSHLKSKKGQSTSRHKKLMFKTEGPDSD
Measurement Protocol: TOX21_p53_BLA_p2_ratio: Tox21 HCT-116 p53 Agonism Beta-lactamase Assay, Ratio, Phase 2 (AID 2283592)
Inconclusive results are not listed. Activity calls are given as the source filed them. Rule for the calls: active = hit-call score of the fitted dose curve at least 0.9, where 1 is the maximum; inconclusive = response in the unintended direction; inactive = score below 0.9.
Outcome codes: yes (1) (active), no (0) (inactive)

O=[N+]([O-])c1ccccc1Nc1ccccc1; no (0)
O=C1c2ccccc2C(=O)C1(O)O; yes (1)
C[C@]12CC[C@@H]3c4ccc(OS(=O)(=O)O)cc4CC[C@H]3[C@@H]1CCC2=O; no (0)

----------
System: Cellular tumor antigen p53 (Homo sapiens)
Measurement Protocol: TOX21_p53_BLA_p3_ratio: Tox21 HCT-116 p53 Agonism Beta-lactamase Assay, Ratio, Phase 3 (AID 2283596)
Protocol: TOX21_p53_BLA_p3 is a cell-based, single-readout assay that uses HCT116, a human intestinal cell line, […] in a 1536-well plate.TOX21_p53_BLA_p3_ratio is an assay readout measuring reporter gene via receptor activity and designed using inducible reporter (beta lactamase induction) detected with GAL4 b-lactamase reporter gene. […] This assay endpoint, TOX21_p53_BLA_p3_ratio, was analyzed in the positive analysis fitting direction relative to DMSO as the negative control and baseline of activity. […]
Results filed as inconclusive are left out. Activity calls are given as the source filed them. Rule for the calls: active = hit-call score of the fitted dose curve at least 0.9, where 1 is the maximum; inconclusive = response in the unintended direction; inactive = score below 0.9.
Outcomes: yes = active, no = inactive

CC/C=C/CCO; no
NCCCNCCSP(=O)(O)O; no
CCOC(=O)n1ccn(C)c1=S; no
Cc1ccc2nc(N)[nH]c(=O)c2c1Sc1ccncc1; yes
CCOc1ccc(O)cc1; no
O=C(O)Cc1c[nH]c2ccccc12; no
CC1=CC[C@H](CC=O)C1(C)C; no
CCO[Si](CCCN)(OCC)OCC; no
Oc1cc(O)c2c(c1)O[C@H](c1ccc(O)c(O)c1)[C@H](O)C2; no
O=C(CC(C(=O)OC1CCCCC1)S(=O)(=O)O)OC1CCCCC1 (stereo unspecified); no
NCCS(=O)(=O)O; no
CC(=O)OC(C)(C)Cc1ccccc1; no
OCCN1C[C@H](O)[C@@H](O)[C@H](O)[C@H]1CO; no
C=Cc1ccc(S(=O)(=O)O)cc1; no
CCN(CC)CCOc1ccc(-c2nc3cc(Cl)ccc3s2)cc1; no
CO[C@H]1/C=C/O[C@@]2(C)Oc3c(C)c(O)c4c(O)c(c(/C=N/N5CCN(C6CCCC6)CC5)c(O)c4c3C2=O)NC(=O)/C(C)=C\C=C\[C@H](C)[C@H](O)[C@@H](C)[C@@H](O)[C@@H](C)[C@H](OC(C)=O)[C@@H]1C; yes
C[C@@H](O)[C@H](N)C(=O)O; no
CCCCC(CC)CN (stereo unspecified); no
CCCCCCCCCCCCCCC(=O)O; no
O=S(=O)(O)CCN1CCN(CCO)CC1; no
CCCCCCCCOc1ccc(C(=O)O)cc1; yes
CC(O)CN(CCCN(C)C)CCCN(C)C (stereo unspecified); no
CCO[Si](C)(CCCOCC1CO1)OCC (stereo unspecified); no
C=CN1CCCCCC1=O; no
CC(C)C(=O)OC(=O)C(C)C; no
Cc1c(C)n(CCN(C)C)c2ccc(C(=O)OCCN(C)C)cc12; no
CC(C)(S)C(=O)N[C@@H](CS)C(=O)O; no
CN1C(=O)CC(c2ccccc2)C1=O (stereo unspecified); no
CCCCOC(=O)CC; no
CCCCCCCCCCCCCCCC(=O)OC[C@@H](COP(=O)([O-])OCC[N+](C)(C)C)OC(=O)CCCCCCCCCCCCCCC; no
COC(=O)C(CN)c1c[nH]c2ccc(OC)cc12 (stereo unspecified); no
c1ccc2c(c1)OCC(CN1CCCCC1)O2 (stereo unspecified); no
Cc1ccc2c(c1[N+](=O)[O-])C(=O)c1ccccc1C2=O; no
N.N.O=C([O-])C1(C(=O)[O-])CCC1.[Pt+4]; no
CCCCCCCCCCCl; no
CC(C)(C)c1ccc(C(=O)CCCN2CCC(OC(c3ccccc3)c3ccccc3)CC2)cc1; yes

Where these numbers come from: PubChem BioAssay (EPA / NIEHS)
